B1: HSP90AB1 (parent)
chain: EADKNDKAVKDLVVLLFETALLSS

# Variants of: B1
# assay.explanation: protein stability index of a GFP-peptide fusion (GPS, HEK-293T) (PSI 1-6); higher = more stable;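 also: lentivirally expressed fusions sorted by FACS into six bins by GFP to DsRed ratio, PSI derived from sequencing read proportions per bin multiplied by bin number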
# experimental.parameters: c terminus: a fixed tail appended
metric: protein stability index
Give your answer as a number; write no unit.

The cases that follow already have their protein stability index on record.
EADKNDKDVKDLVVLLFETALLSS : 2.44
EADKNDKAVCDLVVLLFETALLSS : 1.96
EAHKNDKAVKDLVVLLFETALLSS : 1.98
EADKNDKAVKDLVVLLFETPLLSS : 2.27
ERDKNDKAVKDLVVLLFETALLSS : 2.26
EADKQDKAVKDLVVLLFETALLSS : 1.8
EADHNDKAVKDLVVLLFETALLSS : 1.82
EADKNDKAVKDLVVLLFEVALLSS : 2.11

# get_value(readout='protein stability index', item= "EIDKNDKAVKDLVVLLFETALLSS" )
1.73

Proceed to "EADKNDKAVKDLFVLLFETALLSS"
2.41

Let us now turn to "EADKNDIAVKDLVVLLFETALLSS"
2.77
